testSummary: yeast display, Sf9 membrane polyspecificity reagent, FACS + sequencing; frameworks hold sequencing errors
observedProperty: polyreactivity (PSR sort gate)

# example entries with known answers
[[record]]
seqtext = "QFQLVESGGGLVQAGGSLRLSCAASGFIFTRYVMGWYRQAPGKERELVAAINWSGDSTYYADSVKGRFTISRDYAKNTVYLQLNSLKPEDTAVYYCNADYGWVDTYTNYDYWGQGTQVTVSS"
observed = "low polyreactivity"

[[record]]
seqtext = "QVQLVESGGGLVPAGGSLRLICAGSAFTFRSYAIGWYRQAPGQERELVAAISLGGTSTYYADSVKGRFTISRDNAKNTVYLQMNSLKPEDTAVYSCAARSYGHYGYWGQGTQVTVSS"
observed = "high polyreactivity"

[[record]]
seqtext = "QVQLVESGGGLVQAGGSLRLSCPASGITFGTNAMGWYIQAPGKERELVAAISKRGSSTYYADSVKGRFTISRDNAKNTVYLQMNSLKPEDTAVYYCNVVDERTRNLSKFYYWGQGTQVTVSS"
observed = "high polyreactivity"

[[record]]
seqtext = "QVQLVESGGGLVQAGASLRLSCAASGRTFRYYAMGWYRQAPGKERELVAAINTGSSTYYADSVKGRFTISRDNAKYTVYLQMNSLKPEDTAVYYCNVFQGTRYGYWGQGTKVTVSS"
observed = "low polyreactivity"

[[record]]
seqtext = "QVQLVESGGGLVQAGGSLRLSCAASGRTLGYNAVGWYRQAPGKERELVAAINGGDSTYADSVKGRFTISRDNAKNTVYLQMNSLKPEDTAVYYCNALRGGPFRWHGYYYWGQGTQVTVSS"
observed = "low polyreactivity"

[[record]]
seqtext = "QFQLVESGGGLVQAGGSLRLSCAASGRTFSRTAMGWYRQAPGKERELVAAITKGGGSTYYADSVKGRFTISRDNAKNTVYLQMNSLKPEDTAVYYCAAYKPSTRRYDYWGQGTQVTVSS"
observed = "high polyreactivity"

[[record]]
seqtext = "QVQLVESGGGLVQAGGSLRLSCAASGRTFKINAMGWYRQAPGKERELVATITGRGASTYYADSVKGRFTISRDNAKNTVYLQMNSLKPEDTAVYYCAARTEVPTRYNYWGQGTQVTVSS"
observed = "high polyreactivity"

[[record]]
seqtext = "QVHLVESGGGIVQAGGSLRLSCAASGSIFGKNVMGWYRHAPGKERQLVAAITSGASTYYADSVKGRFTISRDNAKNTVYLQMNSLKPEDTPVYYCAARRWRKYYSGYNYWGQGTQVTVSS"
observed = "high polyreactivity"

[[record]]
seqtext = "QVQLVESGGGLDQAGVSLRLSCAASGRTFGGYAMGWYRQAPGKERELVASITSGGSTYYADSVKGRFTISRDNAKNTVYLQMNSLKPEDTAVYYCAADTYFETSTRAIPTNDYWGQGTQVTVSS"
observed = "low polyreactivity"

[[record]]
seqtext = "QVQLVESVGGLVQAGGSLRLSCAASGRTIVSNAMGWYRQAPGKERELVAAITRGSRTYYADSVKGRFTISRDNAKNTVYLQMNSLKPEDTAVYYCNARHVRYPFTGNYWGQGTQVTVSS"
observed = "high polyreactivity"


Which value of polyreactivity (PSR sort gate) has been reported for "QDQLVESGGGLVQAGGSLRRSCAASGFTFFIYAMGWYRQAPGKEREFVAAITGSGGSTYYADSVKGRFTISRDNAKNTVYLQMNRLKPEDTAVYYCNKLSYGRSGYWGQGTQVTVSS" in the records?
high polyreactivity

Which value of polyreactivity (PSR sort gate) has been reported for "QVQLVETVGGLDQAGGSLLLSCAASGRIFWENALGWYRQAPGKERELVAAISDSVVITYYADSVKGRFTISRDNAKNTVYLQMNSLKPEDTAVYDCAADKRGSVYLSSFWMDYWGQGTQVTVSS" in the records?
low polyreactivity
